- procedure_details: Oral bioavailability in rhesus monkey at 1 mg/kg by LC-MS/MS method
- Format: ADME, organism-based, Macaca mulatta
- test_conditions: in vivo
property_label: bioavailability (%)
Give just the number in %; leave the unit off.

IN: // query bioavailability value for entry Fc1cncc(-c2nc3cc(F)c(F)cc3n2C2CC2)c1
OUT: 53

IN: Request: CC(C)(O)c1cncc(-c2nc3ccc(F)cc3n2C2CC2)c1 [MSD-CYP11B2]
OUT: 15

Further cases:
IN: # bioavailability lookup, item Cc1c(F)cncc1-c1nc2cc(F)c(F)cc2n1C1CC1
OUT: 88

---

- Test system: Rattus norvegicus
- procedure_details: Dose normalized AUC in Sprague-Dawley rat at 2 mg/kg, po or 1 mg/kg, iv by LC-MS/MS method
- Format: ADME, organism-based
- test_conditions: in vivo
property_label: AUC/dose

Answered cases to consult:
IN: Could you tell me which AUC/dose is on file for Cn1c(-c2cccnc2)nc2ccc(F)cc21 ?
OUT: 0.56 µM·kg·h/mg

IN: Please do the same for Fc1cncc(-c2nc3cc(F)c(F)cc3n2C2CC2)c1 as well.
OUT: 2.1 µM·kg·h/mg

IN: Next entry: CC(C)(O)c1cncc(-c2nc3ccc(F)cc3n2C2CC2)c1
OUT: 4.32 µM·kg·h/mg

IN: Now consider Fc1cc2nc(-c3cccnc3)n(C3CC3)c2cc1F and answer again.
OUT: 1.32 µM·kg·h/mg

IN: Try Fc1ccc2nc(-c3cccnc3)n(C3CC3)c2c1 next.
OUT: 1.82 µM·kg·h/mg

IN: Same again, this time with CC1(n2c(-c3cccnc3)nc3ccc(F)cc32)CC1
OUT: 0.2 µM·kg·h/mg

---
IN: Given CC(C)(O)c1cncc(-c2nc3cc(F)c(F)cc3n2C2CC2)c1 , state its recorded AUC/dose.
OUT: 6.55 µM·kg·h/mg
